# System: ACHN renal
# METHOD DESCRIPTION: NCI-60 one-dose screen, 48 h (100 = growth as untreated, 0 = no growth, -100 = all killed)
# STUDY CONDITIONS: 10 µM unless noted
This is part of a sample that, as a whole, favours compounds with a hit. Of some 83,000 tested, about 20% had one in any assay.
Catalogue of growth readings, one per entry.
# output: bare number, implied unit %

Known results for compounds:
COMPOUND: O=C(O)C[C@H](O)C[C@H](O)/C=C/c1c(C2CC2)nc2ccccc2c1-c1ccc(F)cc1
READING UNIT: %
ASSAY VALUE: 39.7
//
COMPOUND: O=C(N/N=C/c1ccc(F)cc1)c1[nH]c2ccc(I)cc2c1-c1ccccc1
READING UNIT: %
ASSAY VALUE: 36
//
COMPOUND: CCN1C(=O)C2(Nc3ccccc3S2)c2cc(C)ccc21 (stereo unspecified)
READING UNIT: %
ASSAY VALUE: 94.2
//
COMPOUND: COc1cc(OCc2cccc(-c3ccc(C(O)c4nccs4)cc3)c2C)cc(OC)c1C=O (stereo unspecified)
READING UNIT: %
ASSAY VALUE: 25.2
//
COMPOUND: COc1ccc(OC2=CC(=O)c3ccc(C)nc3C2=O)cc1
READING UNIT: %
ASSAY VALUE: 51.4
//
COMPOUND: CCCCCCCC/C=C\CCCCCCCCOc1cccc(CC(=O)NCC[N+](C)(C)C)c1
READING UNIT: %
ASSAY VALUE: 93.4
//
COMPOUND: COc1cc(/C=C/C(=O)CC(=O)/C=C/c2cc(Br)c(OC)c(OC)c2)cc(Br)c1OC
READING UNIT: %
ASSAY VALUE: 109
//
COMPOUND: COc1cc2nc(N3CCC[C@H](NC4=CC(=O)c5ccccc5C4=O)C3)nc(N)c2cc1OC
READING UNIT: %
ASSAY VALUE: -100

Now turn to the next compound.
Request: Please provide the recorded growth for CSc1ccc(OC(C)=O)cc1C , tested on ACHN renal.
Result: 98

###

# System: KM12 colon
# METHOD DESCRIPTION: NCI-60 one-dose screen, 48 h (100 = growth as untreated, 0 = no growth, -100 = all killed)
# STUDY CONDITIONS: 10 µM unless noted
The panel holds about 83,000 compounds, 20% with a hit somewhere; the sample as a whole holds those more often.
Catalogue of growth readings, one per entry.
# output: bare number, implied unit %

Request: Consider the molecule O=C(N/N=C(\CS(=O)(=O)c1ccccc1)c1cc2ccccc2oc1=O)c1ccccc1 and give its measured growth.
Result: 108

###

# Tested on: HOP-92 NSCLC
# METHOD DESCRIPTION: NCI-60 one-dose screen, 48 h (100 = growth as untreated, 0 = no growth, -100 = all killed)
# STUDY CONDITIONS: 10 µM unless noted
This is part of a sample that, as a whole, favours compounds with a hit. Of some 83,000 tested, about 20% had one in any assay.
Catalogue of growth readings, one per entry.
# output: bare number, implied unit %

COMPOUND: COc1cc(-c2nc3ccccc3o2)cc(CN2CCN(c3ccccc3)CC2)c1O
growth, %: 81.8

COMPOUND: COc1ccc(/C=C/C(=O)N2CCC(O)CC2)cc1OC1CCCC1
growth, %: 95.7

COMPOUND: COCCOC1=C(Cl)C(=O)c2ccccc2C1=O
growth, %: -17.3

COMPOUND: COC(=O)c1cc(-c2ccc(C)cc2)n(C(=O)CSc2nc3sc(C(N)=O)c(C)c3c(=O)n2Cc2ccccc2)n1
growth, %: 92.5

COMPOUND: O=C1/C(=C/c2ccccc2F)CNC/C1=C\c1ccccc1F
growth, %: 16.6

Request: Please provide the recorded growth for CC(=O)OC[C@]1(C)C=C2C(=O)[C@](C)(O)C3(CC3)C(C)=C2[C@H]1OC(C)=O , tested on HOP-92 NSCLC.
Result: 122

Request: Try this compound next: CSc1ccc(OC(C)=O)cc1C
Result: 97.2

Request: Try this compound next: O=S(=O)(Nc1ccccc1Cl)c1ccc(-c2cnc(C3CC3)o2)cc1
Result: 37.1

###

# System: ACHN renal
# METHOD DESCRIPTION: NCI-60 one-dose screen, 48 h (100 = growth as untreated, 0 = no growth, -100 = all killed)
# STUDY CONDITIONS: 10 µM unless noted
About 83,000 compounds went through this panel and 20% of them were active in at least one assay; those are over-represented in the sample as a whole.
OBSERVABLE: growth (%)
# output: bare number, implied unit %

COMPOUND: COc1ccc(-n2c(SCc3cc(OC)c(OC)c(OC)c3)nc3ccc(C)cc3c2=O)c(OC)c1
READING UNIT: %
ASSAY VALUE: 44.9
--
COMPOUND: O/N=C/c1cccs1
READING UNIT: %
ASSAY VALUE: 97
--
COMPOUND: COC(=O)[C@@H]1CCCN1C(=O)[C@@H]1CCCN1C(=O)[C@@H](Cc1c[nH]c2ccccc12)NC(=S)Nc1cc(C(F)(F)F)cc(C(F)(F)F)c1
READING UNIT: %
ASSAY VALUE: 61.9
--
COMPOUND: O=C1c2ccccc2C(=O)c2c(Nc3ccc(CCO)cc3)ccc(O)c21
READING UNIT: %
ASSAY VALUE: 64.4
--
COMPOUND: COc1ccc(/C=C2\CN(Cc3cn(CCCNc4ccnc5cc(Cl)ccc45)nn3)C/C(=C\c3ccc(OC)cc3)C2=O)cc1
READING UNIT: %
ASSAY VALUE: 79.6
--
COMPOUND: CN1CCN(C)c2cncc(Br)c2C1=O
READING UNIT: %
ASSAY VALUE: 108
--
COMPOUND: FC(F)(F)c1ccc2c(c1)n1cnnc1c1nncn21
READING UNIT: %
ASSAY VALUE: 112
--
COMPOUND: Clc1nc(-c2ccccn2)nc2sc3c(c12)CCCCCC3
READING UNIT: %
ASSAY VALUE: -20.4
--
COMPOUND: C[C@@H](Oc1cc(-c2cnn(C3CC4(CNC4)C3)c2)cnc1N)c1c(Cl)ccc(F)c1Cl
READING UNIT: %
ASSAY VALUE: 48.6
--
COMPOUND: CC(=O)N(CC(O)CO)c1c(I)c(C(=O)NCCO)c(I)c(C(=O)NCC(O)CO)c1I (stereo not drawn)
READING UNIT: %
ASSAY VALUE: 103

Request: Consider the compound COc1ccc(Sc2ccc3[nH]c(=O)nc(N)c3c2)cc1 and give its measured growth.
Result: 107

Request: Try this compound next: CCCCCn1c(=N)n(CC(O)COc2cccc(C)c2)c2ccccc21 (stereo not drawn)
Result: 10.7

Request: Try this compound next: CCCCCCCC/C=C\CCCCCCCCOc1cccc(CC(=O)NCC[N+]2(C)CCCC2)c1
Result: 99

###

# Test system: MDA-MB-231 breast
# METHOD DESCRIPTION: NCI-60 one-dose screen, 48 h (100 = growth as untreated, 0 = no growth, -100 = all killed)
# STUDY CONDITIONS: 10 µM unless noted
The panel holds about 83,000 compounds, 20% with a hit somewhere; the sample as a whole holds those more often.
In plain terms, low growth, meaning strictly below 70%, gives 1 (yes), and everything else gives 0 (no).

MOLECULE: FC(F)(F)Oc1ccc2c(c1)C[C@H]1C[C@@H](c3ccoc3)N2O1
TARGET OR TEST SYSTEM: MDA-MB-231 breast
ASSIGNED CLASS: 0 (no)

Request: # TODO verify growth < 70% strictly for this molecule: COc1cc(/C=C/C(=O)C2=C(/C=C/c3ccc(O)c(OC)c3)NC(=O)NC2c2ccc(O)c(OC)c2)ccc1O (stereo unspecified)
Result: 1 (yes)

Request: Try this molecule next: CC(C)(C)[Si](C)(C)OC1[C@@H](COC(=O)NC(=O)CCl)O[C@@H](n2cnc3c(N)ncnc32)[C@H]1O[Si](C)(C)C(C)(C)C (stereo partly specified)
Result: 1 (yes)

###

# Tested on: SF-268 CNS
# METHOD DESCRIPTION: NCI-60 one-dose screen, 48 h
# STUDY CONDITIONS: 10 µM unless noted
The panel holds about 83,000 compounds, 20% with a hit somewhere; the sample as a whole holds those more often. Active and inactive are the calls of the source. How the source made its calls: active means growth percent below 10; inactive means the rest.
Your answer must be one of the following: yes (active), no (inactive)

Request: I would be grateful if you could indicate the recorded call for O=[N+]([O-])c1cc2c(cc1Br)-c1ccccc1C2 .
Result: no

###

# Test system: MCF7 breast
# METHOD DESCRIPTION: NCI-60 one-dose screen, 48 h (100 = growth as untreated, 0 = no growth, -100 = all killed)
# STUDY CONDITIONS: 10 µM unless noted
The panel holds about 83,000 compounds, 20% with a hit somewhere; the sample as a whole holds those more often.
OBSERVABLE: growth (%)
# output: bare number, implied unit %

Known results for compounds:
COMPOUND: COC(=O)c1c2c(c(C)[n+]([O-])c1C)C(=O)C=C(NCc1cccc(OC)c1)C2=O
READING UNIT: %
ASSAY VALUE: -65.4

COMPOUND: CC1=CN2C(=NC3=C(CCCC/C3=C\c3ccccc3)C2c2ccccc2)S1 (stereo unspecified)
READING UNIT: %
ASSAY VALUE: 94.6

COMPOUND: Cn1c2c(cc(S(=O)(=O)c3ccccc3)c1=O)CCc1c-2cnn1-c1cccc(Cl)c1
READING UNIT: %
ASSAY VALUE: 90.4

COMPOUND: CCCCc1ccc(C(O)(CCN2CC3CCC(CC3)C2)c2ccccc2)cc1 (stereo unspecified)
READING UNIT: %
ASSAY VALUE: 95.7

COMPOUND: O=C1Nc2ccc(Cl)cc2/C1=N/N=C(c1ccccc1)c1ccccc1
READING UNIT: %
ASSAY VALUE: 100

Now turn to the next compound.
Request: Consider the compound COc1nc2c(cc1S(=O)(=O)c1ccccc1)CCc1c-2cnn1-c1cccc(Cl)c1 and give its measured growth.
Result: 87.5
